// provenance: the supplement of paper PMC11451515

Measured cell viability of individual entries
Test system: SEM cells
Test: cell viability relative to DMSO control; higher = less cytotoxic
Settings: RPMI 5 mM glucose + 10% FBS; 48 h; 15.4 µM
property.measured: cell viability (%)

# structure.notation, value.unit, endpoint.result
measured = [
    ("O=C1c2cccc(O)c2C(=O)c2c(O)cc(CO)cc21", "%", 103),
    ("CC(Oc1ccc(O)cc1)(P(=O)(O)O)P(=O)(O)O", "%", 48.4),
    ("CCOC(=O)c1ncn2c1CN(C)C(=O)c1cc(F)ccc1-2", "%", 57.1),
    ("CC1=C(C)C2=C(S1)[N]3C(=NN=C3[C@H](CC(=O)OC(C)(C)C)/N=C2/C4=CC=C(Cl)C=C4)C", "%", 4.94),
    ("c1ccc(-c2nn3c(c2-c2ccnc4cc(OCCN5CCOCC5)ccc24)CCC3)nc1", "%", 123),
    ("C=C1C[C@@]2(O)O[C@@]3(C[C@H]2C(C)C)[C@@H](C)CC[C@@H]13", "%", 108),
    ("COc1ccc(-c2c(-c3ccc(O)cc3O)n[nH]c2C)cc1", "%", 44),
    ("Cc1cnc(Nc2ccc(OCCN3CCCC3)cc2)nc1Nc1cccc([S+](=O)([O-])NC(C)(C)C)c1", "%", 90.1),
    ("CC1(C)OC/2=C(\\[C@H](NCC3=CC=CC=C3)[C@@H]1O)C(=O)C4=CC=CC=C4C2=O", "%", 24.5),
]

----------
Test system: SEM cells
Test: cell viability relative to DMSO control; higher = less cytotoxic
Conditions: RPMI 5 mM glucose + 10% dialyzed FBS; 48 h; 0.000781 µM
Measured cell viability of individual entries
property.measured: cell viability (%)

# structure.notation, endpoint.result
rows = [
    ("CN(C)[C@H]\\1[C@@H]2[C@@H](O)[C@@H]\\3C(=C)C4=C(C(=CC=C4)O)C(=O)C3=C(\\O)[C@@]2(O)C(=O)\\C(=C1O)C(N)=O", 112),
    ("c1ccc(-c2nn3c(c2-c2ccnc4cc(OCCN5CCOCC5)ccc24)CCC3)nc1", 68.3),
    ("CCC1=C(C)CN(C(=O)NCCc2ccc(S(=O)(=O)NC(=O)N[C@H]3CC[C@H](C)CC3)cc2)C1=O", 94.9),
    ("c1cc(-c2sc(-c3ccncc3)c(-c3ccncc3)c2-c2ccncc2)ccn1", 102),
    ("CC(C)[C@H](CO)Nc1nc(Nc2ccc(C(=O)O)c(Cl)c2)c2ncn(C(C)C)c2n1", 102),
    ("CC(C)c1ccc2oc3nc(N)c(C(=O)O)cc3c(=O)c2c1", 98),
    ("CC1=C(C)C2=C(S1)[N]3C(=NN=C3[C@H](CC(=O)OC(C)(C)C)/N=C2/C4=CC=C(Cl)C=C4)C", 108),
    ("COC1=C(OC)C(=O)C(C/C=C(\\C)CC/C=C(\\C)CC/C=C(\\C)CC/C=C(\\C)CC/C=C(\\C)CC/C=C(\\C)CC/C=C(\\C)CC/C=C(\\C)CC/C=C(\\C)CCC=C(C)C)=C(C)C1=O", 104),
    ("COc1cc2ncnc(Nc3ccc(F)c(Cl)c3)c2cc1OCCCN1CCOCC1", 105),
    ("C=C1C[C@@]2(O)O[C@@]3(C[C@H]2C(C)C)[C@@H](C)CC[C@@H]13", 81.8),
    ("COc1ccc(-c2c(-c3ccc(O)cc3O)n[nH]c2C)cc1", 98.6),
    ("CCC(=O)O[C@@]1([C@H](C)C[C@H]2[C@@H]3C[C@H](F)\\C4=C\\C(=O)\\C=C/[C@]4(C)[C@@]3(F)[C@@H](O)C[C@]12C)C(=O)SCF", 98.1),
    ("Nc1ccc([S+](=O)([O-])Nc2ccccn2)cc1", 98.6),
    ("Cc1cc(SCc2sc(-c3ccc(C(F)(F)F)c(F)c3)nc2C)ccc1OCC(=O)O", 93.4),
    ("NC/1=N/C(=O)N(/C=C1)[C@H]2CC[C@@H](CO)O2", 68.7),
    ("OC1=C(C=CC=C1)C2=CC=C(C=C2)C3=CSC4=C3C(=C(/C#N)C(=O)N4)/O", 113),
    ("COc1ccc(CCC(=O)Nc2nc3ccc(Cl)cc3s2)cc1OC", 120),
]

----------
Measured cell viability of individual entries
System: SEM cells
Assay: cell viability relative to DMSO control; higher = less cytotoxic
Conditions: HPLM + 10% dialyzed FBS; 48 h; 0.00702 µM

# compound, value.unit, cell viability
records = [
    ("CC(C)(Cc1ccc2ccccc2c1)NC[C@@H](O)COc1cccc(Cl)c1C#N", "%", 125),
    ("CCOC(=O)c1ccc(C#Cc2ccc3c(c2)C(C)(C)CCS3)nc1", "%", 109),
    ("CCC1=C(C)CN(C(=O)NCCc2ccc(S(=O)(=O)NC(=O)N[C@H]3CC[C@H](C)CC3)cc2)C1=O", "%", 93.2),
    ("c1ccc(-c2nn3c(c2-c2ccnc4cc(OCCN5CCOCC5)ccc24)CCC3)nc1", "%", 121),
    ("NC12CC3CC(CC(C3)C1)C2", "%", 70.8),
    ("COc1ccc(-c2c(-c3ccc(O)cc3O)n[nH]c2C)cc1", "%", 114),
    ("O=C(c1ccc(F)cc1)C1CCN(CCn2c(=O)[nH]c3ccccc3c2=O)CC1", "%", 112),
    ("COc1ccc(Cn2ccc3ccc(C(=O)NO)cc32)cc1", "%", 120),
    ("Cc1cnc(Nc2ccc(OCCN3CCCC3)cc2)nc1Nc1cccc([S+](=O)([O-])NC(C)(C)C)c1", "%", 93.9),
    ("CNC(=O)c1cc(Oc2ccc(NC(=O)Nc3cc(C(C)(C)C)nn3-c3ccc4ncccc4c3)c(F)c2)ccn1", "%", 118),
    ("CN(C)c1nc(N(C)C)nc(N(C)C)n1", "%", 110),
    ("CCCn1c(=O)c2[nH]c(C34CC5CC3C[C@@H](C5)C4)nc2n(CCC)c1=O", "%", 103),
    ("CCCN[S+](=O)([O-])Nc1ncnc(OCCOc2ncc(Br)cn2)c1-c1ccc(Br)cc1", "%", 123),
    ("C[C@H]1CCC/C=C/C2C[C@H](O)C[C@H]2[C@H](O)/C=C/C(=O)O1 (stereo partly specified)", "%", 17.9),
    ("CC1(C)OC/2=C(\\[C@H](NCC3=CC=CC=C3)[C@@H]1O)C(=O)C4=CC=CC=C4C2=O", "%", 91),
    ("O=C1[O][Pt]2([NH]C3CCCCC3[NH]2)[O]C1=O (stereo unspecified)", "%", 102),
]

----------
System: NOMO1
Assay: cell viability relative to DMSO control; higher = less cytotoxic
Settings: RPMI 5 mM glucose + 10% dialyzed FBS; 48 h; 0.00702 µM
Measured cell viability of individual entries

# molecule, value.unit, cell viability
measured = [
    ("CN(C)c1nc(N(C)C)nc(N(C)C)n1", "%", 96),
    ("CN(C)[C@H]\\1[C@@H]2[C@@H](O)[C@@H]\\3C(=C)C4=C(C(=CC=C4)O)C(=O)C3=C(\\O)[C@@]2(O)C(=O)\\C(=C1O)C(N)=O", "%", 121),
    ("COc1ccc(-c2nc3cc(C4=NNC(=O)CC4C)ccc3[nH]2)cc1 (stereo not given)", "%", 111),
    ("CN(C)CCC=C1C2=C(C=CC=C2)\\C=C/C3=C1C=CC=C3", "%", 107),
    ("CC(C)[C@H](CO)Nc1nc(Nc2ccc(C(=O)O)c(Cl)c2)c2ncn(C(C)C)c2n1", "%", 123),
]

----------
Measured cell viability of individual entries
Test system: P12-Ichikawa
Test: cell viability relative to DMSO control; higher = less cytotoxic
Conditions: HPLM + 10% dialyzed FBS; 48 h; 0.569 µM
property.measured: cell viability

# structure.notation, endpoint.result
records = [
    ("CNC(=O)c1c(F)cccc1Nc1nc(Nc2cc3c(cc2OC)CCN3C(=O)CN(C)C)nc2[nH]ccc12", "112%"),
    ("COc1cc(N2CCC(N3CCN(C)CC3)CC2)ccc1Nc1ncnc(Nc2ccccc2[S+](=O)([O-])C(C)C)n1", "122%"),
    ("COc1cc2nc(-c3ccc(N4CCN(C)CC4)cc3)nc(NCCN3CCOCC3)c2cc1OC", "81.7%"),
    ("Cn1cc(-c2ccc3ncc(Cc4ccc5ncccc5c4)n3n2)cn1", "113%"),
]

----------
Measured cell viability of individual entries
Tested on: SEM cells
Experiment: cell viability relative to DMSO control; higher = less cytotoxic
Settings: HPLM + 10% dialyzed FBS; 48 h; 15.4 µM

# molecule, value.unit, cell viability
records = [
    ("CC1=C2N=C([NH]C2=CC(=C1)N3CCOCC3)\\C4=C(NC[C@@H](O)C5=CC=CC(=C5)Cl)\\C=C/NC4=O", "%", 19.4),
    ("Cc1ccc(F)c(NC(=O)Nc2ccc(-c3cccc4[nH]nc(N)c34)cc2)c1", "%", 64.2),
    ("COc1cc2nc(-c3ccc(N4CCN(C)CC4)cc3)nc(NCCN3CCOCC3)c2cc1OC", "%", 4.43),
    ("c1ccc2c(-c3cnn4cc(-c5ccc(N6CCNCC6)cc5)cnc34)ccnc2c1", "%", 1.26),
    ("C[C@@]12OC(=O)[C@@]1(NC(=O)[C@@H]2CCCl)[C@@H](O)[C@H]\\3CCC\\C=C3", "%", 3.3),
    ("COC1=CC=C2C(=CC=NC2=C1)OC3=CC=C(NC(=O)\\C4=C(C)\\N(CC(C)(C)O)N(C4=O)C5=CC=CC=C5)C=C3F", "%", 45.7),
    ("C[C@H]1CCC/C=C/C2C[C@H](O)C[C@H]2[C@H](O)/C=C/C(=O)O1 (some centres not stated)", "%", 2.09),
    ("CN(C)[C@H]\\1[C@@H]2[C@@H](O)[C@@H]\\3C(=C)C4=C(C(=CC=C4)O)C(=O)C3=C(\\O)[C@@]2(O)C(=O)\\C(=C1O)C(N)=O", "%", 97.8),
    ("COc1cc2c(NC3CCN(C(C)C)CC3)nc(C3CCCCC3)nc2cc1OCCCN1CCCC1", "%", 61.7),
    ("CCCCc1oc2ccc(NS(C)(=O)=O)cc2c1C(=O)c1ccc(OCCCN(CCCC)CCCC)cc1", "%", 78.6),
    ("COc1ccc(CCC(=O)Nc2nc3ccc(Cl)cc3s2)cc1OC", "%", 116),
    ("CCCCCCCCCCCCCCCC(=O)OC[C@@H](NC(=O)C(Cl)Cl)[C@H](O)c1ccc([N+](=O)[O-])cc1", "%", 116),
    ("Cn1cc(-c2ccncc2)c(-c2ccc(OCc3ccc4ccccc4n3)cc2)n1", "%", 110),
    ("CC(=O)SCC(Cc1ccccc1)C(=O)NCC(=O)OCc1ccccc1 (configuration not stated)", "%", 108),
    ("CC1(C)CC(=O)c2c(C(F)(F)F)nn(-c3ccc(C(N)=O)c(NC4CCC(OC(=O)CN)CC4)c3)c2C1 (configuration not stated)", "%", 17.3),
    ("COc1ccc(-c2c(-c3ccc(O)cc3O)n[nH]c2C)cc1", "%", 62.2),
    ("CCN(CC)CCOC1=CC=C(NC2=NC=C3\\C=C(/C(=O)N(C)C3=N2)C4=C(Cl)C=CC=C4Cl)C=C1", "%", 6.61),
]
